Just for reference, the supplement of paper PMC11865577 is where these values come from.

Tested on: TO-3-N3 (biotin conjugate)
Test Summary: pull-down binding Z-score (relative to library population); higher = stronger binding
Recorded Conditions: RNA library: Library-2
Kind request: treat 0.2 as inclusive, so pull-down binding Z-score at 0.2 or higher is True, anything lower is False.

Reference set (10 entries):
GUGAGCUCAGCUCCCUGCCUCAC [hsa-mir-3622b]: False
AUGAUUUUUGGGGUCA [hsa-mir-4678]: False
GUCAUUACUUUCAAUAGC [hsa-mir-548p]: False
GGGGUAGAAGCCACCCG [hsa-mir-4466]: False
GAAAAUGACUCUAAAGAGGGUUUUUUC [SHAPE_invitro_SARS-CoV-2_Motif_382]: False
GGUGGGGGCUCUGAGUGGGGAAAGUGGGGGCCUAGGGGAGGUCACAGU [hsa-mir-4259]: True
CCUGCCCAAAUGGUGGAGCAGAUUCGAGGGGCAGG [hsa-mir-4436b-2_4436b-1]: False
GGCUGCUGGAUUGAAUUAGCUGCA [hsa-mir-1286]: False
GGGAAGGAGAAGGGACGCUUCCC [hsa-mir-3127]: True
GGUAAGGUCUUUCAGCC [hsa-mir-7150]: True

In the following, a different sequence is considered.
Does pull-down binding Z-score meet or surpass 0.2 for UCCAUUUUUGGGUGUUUAUUACCACAAAAACAACAAAAGUUGGA [SHAPE_invitro_SARS-CoV-2_Motif_398] ?
False

###

Tested on: TO-3-N3-2 (biotin conjugate)
Test Summary: pull-down binding Z-score (relative to library population); higher = stronger binding
Recorded Conditions: RNA library: Library-2
Kindly state pull-down binding Z-score for each of the entries shown.

CACUCAGUAAAUAUUUGUUGAGUG [hsa-mir-1271]: -0.186
AUUAUGUUUUGGACAUAGAAACAUAAC [hsa-mir-5688]: -0.377
AGGAGUUCACU [hsa-mir-1183]: -0.383

Provide each entry's pull-down binding Z-score from the list below.
1. CAUGUGUUGGUAGCGAUAAUGUUACUGACUUUAAUG
2. ACAUACUAGGACCUCUUUCUGCUCAAACUGGAAUUGCCGUUUUAGAUAUGU [DMSMaPseq_invitro_SARS-CoV-2_Motif_193]
3. UUCUGUUGUCUGAAAGAAAAGAA [hsa-mir-1283-2]
4. UGUAAAAUGUAAUAACAUUUCUUAUGUUUAAAACACUUUACA [hsa-mir-4801]
5. CUGGUGUUCUCACGCAAAGUGGCCAGGGUGUGGGAGACUAGA [hsa-mir-7161]
6. UCGUCAAUAGGGCGA [IAV_invivo_PB2_1_Motif_18+IAV_invivo_PB2_1_Motif_18]
7. AGACAGCCUGAGUUGGAGGCUCAUCUUCACUUCUUGCUGUGU [hsa-mir-3168]
8. UGAGCAUUUUUACUGAAUUGCCA [hsa-mir-6715a]

1: -0.614; 2: -0.407; 3: -0.145; 4: -0.401; 5: 0.556; 6: -0.184; 7: -0.221; 8: -0.268

Provide each entry's pull-down binding Z-score from the list below.
1. GUUGAAAAAUAUCUAUGUAUUAGUAAAC [hsa-mir-649]
2. GAAGUCACACCUUC [SHAPE_invitro_SARS-CoV-2_Motif_534]
3. GUCAUUUCCCAUCACUAAUGGC [hsa-mir-6815]
4. GGUUGUAUGGUACAAGUAACUUGUGGUACAACU

1. -0.281
2. -0.725
3. -0.336
4. -0.128

Provide each entry's pull-down binding Z-score from the list below.
1. ACGUGGCUUUGGAGACUCCGUGGAGGAGGUCUUAUCAGAGGCACGU
2. AGUGUGCAGUCAUCCACACA [hsa-mir-4731]
3. GCGCGGCCAGAAACUGGCGGCGC [mismatch-GG]
4. GCAGGAGCCUUAAAUAAGGCUACUAACAAUGC
5. AAGAAGCUGCGCUGUGCACCUUUUU [DMSMaPseq_invitro_SARS-CoV-2_Motif_178]

1. 0.0243
2. -0.196
3. -0.302
4. -0.0703
5. -0.354

Provide each entry's pull-down binding Z-score from the list below.
1. GUGCAGCUUGUACCUGCAC [hsa-mir-1293]
2. CUUUUAUAUCAAGGCACAUAAAAG [hsa-mir-3910-1]

-0.574
-0.271
